assay: qHTS of pediatric cancer cell lines to identify multiple opportunities for drug repurposing: Confirmatory screen for NB1643 cells (AID 1347109); settings: NB1643 neuroblastoma cell viability; series mostly up to 45.9 µM; also: nearly all actives have a fitted effect of over 45% in size
Records with an inconclusive call do not appear. The source made the active and inactive calls. Calls follow the shape of the dose curve; as a rule, active = well fitted cell-killing curve with a large enough effect; inconclusive = small, poorly fitted or top-dose-only effect, or effect the other way; inactive = no such curve, though single readings can be large or run the other way.
Outcomes you can answer with include only these: active, inactive

> print(dat)
                                   compound  qualitativelabel
1  CCOC(=O)O[C@]1(C(=O)OCCl)CC[C@H]2[C@@H]3CCC4=CC(=O)C=C[C@]4(C)[C@H]3[C@@H](O)C[C@@]21C          inactive
2  COc1c(C)c2c(c(O)c1C/C=C(\C)CCC(=O)OCCN1CCOCC1)C(=O)OC2            active
3  CCCCC(CC)CNC(=O)CC(C)OC(=O)CCC(=O)O (centres undefined)          inactive
4       CCc1cc2cc(OC)c(OC)cc2c(Cc2ccccc2)n1          inactive

Per the assay record, what outcome was assigned to "O=c1[nH]sc2cc(Cl)ccc12" ?
active

Lookup CC(=O)OCC(=O)[C@@]1(O)CCC2C3CCC4=CC(=O)CC[C@]4(C)C3[C@@H](O)C[C@@]21C (some centres undefined)
inactive

Lookup "CCCC(=O)O[C@]1(C(=O)COC(=O)CC)CC[C@H]2[C@@H]3CCC4=CC(=O)CC[C@]4(C)[C@H]3[C@@H](O)C[C@@]21C"
inactive

Lookup "CN(C)CCN(Cc1ccsc1)c1ccccn1"
inactive

Lookup "C[C@H]1C[C@H]2[C@@H]3CCC4=CC(=O)C=C[C@]4(C)[C@H]3C(=O)C[C@]2(C)[C@@]1(O)C(=O)CO"
active
